- Assay Target: hGLP-1R (Homo sapiens)
- Sequence (P43220 24-463): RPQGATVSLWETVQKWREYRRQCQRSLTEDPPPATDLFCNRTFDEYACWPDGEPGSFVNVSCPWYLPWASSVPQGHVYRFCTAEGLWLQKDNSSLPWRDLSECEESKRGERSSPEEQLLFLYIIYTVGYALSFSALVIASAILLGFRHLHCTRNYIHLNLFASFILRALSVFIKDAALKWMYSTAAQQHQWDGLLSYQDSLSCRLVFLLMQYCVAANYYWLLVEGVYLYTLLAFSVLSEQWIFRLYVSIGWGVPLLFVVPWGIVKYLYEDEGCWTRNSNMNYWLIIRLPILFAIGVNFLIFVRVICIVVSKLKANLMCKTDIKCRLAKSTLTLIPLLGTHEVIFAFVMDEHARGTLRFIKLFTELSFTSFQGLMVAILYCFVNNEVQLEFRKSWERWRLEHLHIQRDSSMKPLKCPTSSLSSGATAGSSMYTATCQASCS
- Assay Protocol: Functional cAMP activation in the presence of 0.1% casein (no HSA);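 also: intracellular cAMP rise after 30 min at 37 °C read by HTRF, normalized between buffer only (0%) and maximal control ligand (100%), four-parameter variable-slope fit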
- Type: cell-based
- Condition Description: read-out: Relative cAMP EC50, hGLP-1R
pEC50: −log10 of the molar value. Starred links: 1 amine or outer side, 2 acyl side, 3 side chain; linkers in the order of their positions; H or OH if unused. Non-standard residues stand in square brackets, D forms with d. Groups on a side chain read outwards from the residue. No end group written: not given here. *: point of attachment. C18 diacid = O=C(O)CCCCCCCCCCCCCCCCC(=O)*; αMePhe(2-F) = C[C@](N)(Cc1ccccc1F)C(=O)O; γGlu = O=C(O)[C@H](CCC(=O)[*:2])N[*:1]; αMe4Pal = C[C@](N)(Cc1ccncc1)C(=O)O; αMeY = C[C@](N)(Cc1ccc(O)cc1)C(=O)O; 4Pal = N[C@@H](Cc1ccncc1)C(=O)O; αMeL = CC(C)C[C@](C)(N)C(=O)O; αMeS = C[C@](N)(CO)C(=O)O; Orn = NCCC[C@H](N)C(=O)O; AEEA = NCCOCCOCC(=O)O; Aib = CC(C)(N)C(=O)O

Substance: H-Y[Aib]QGT[αMePhe(2-F)]TSD[4Pal]SILLDKK([γGlu-γGlu-C18 diacid])AQ[Aib]AFIEYLEEGGPSSGAPPPSGSEE-NH2 [Example 610]
pEC50: 8.78

Substance: Y[Aib]QGT[αMePhe(2-F)]TSD[4Pal]SILLDKK([γGlu-γGlu-C18 diacid])AQ[Aib]AFIEWLQEGGPSSGAPPPSGTEE-NH2 [Example 578]
pEC50: 9.63

Substance: H-Y[Aib]QGT[αMePhe(2-F)]TSD[4Pal][αMeS]I[αMeL]LD[Orn]K([AEEA-γGlu-C18 diacid])AQ[Aib][Orn]FI[dE]YLIEGGPSSGEPPPSGTE-NH2 [Example 501]
pEC50: 9.40

Substance: H-Y[Aib]QGT[αMePhe(2-F)]TSD[4Pal][αMeS]I[αMeL]LD[Orn]K([AEEA-γGlu-C18 diacid])AA[Aib]EFI[dE][αMeY]LIEGGPSSGAPPPSGTEQ-OH [Example 726]
pEC50: 9.61

Substance: H-Y[Aib]QGT[αMePhe(2-F)]TSDY[αMeS]I[αMeL]LD[Orn]K([AEEA-γGlu-C18 diacid])AQ[Aib][Orn]FI[dE][αMeY]LEEGGPSSGEPPPEEG-NH2 [Example 403]
pEC50: 9.40

Substance: H-Y[Aib]QGT[αMePhe(2-F)]TSD[4Pal][αMeS]ILLD[Orn]K([γGlu-γGlu-C18 diacid])AQ[Aib][Orn]FI[dE]YLIEGGPSSGEPPPEGAEE-NH2 [Example 604]
pEC50: 9.15

Substance: H-Y[Aib]QGT[αMePhe(2-F)]TSD[4Pal]SI[αMeL]LD[Orn]K([γGlu-γGlu-C18 diacid])AQ[αMe4Pal]EFI[dE][αMeY]LAEGGPSSGAPPPSGS-NH2 [Example 646]
pEC50: 8.59

Substance: H-Y[Aib]QGT[αMePhe(2-F)]TSD[4Pal][αMeS]I[αMeL]LD[Orn]K([γGlu-γGlu-C18 diacid])AQ[Aib][Orn]FI[dE][αMeY]LSEGGPSSGEPPPSGSE-NH2 [Example 560]
pEC50: 9.05

Substance: H-Y[Aib]QGT[αMePhe(2-F)]TSD[4Pal]SI[αMeL]LD[Orn]K([γGlu-γGlu-C18 diacid])AQ[αMe4Pal]EFI[dE][αMeY]LQEGGPSSGEPPPSGS-NH2 [Example 649]
pEC50: 8.87

Substance: H-Y[Aib]QGT[αMePhe(2-F)]TSD[4Pal]SILLDKK([γGlu-γGlu-C18 diacid])AQ[Aib]AFIE[αMeY]LEEGGPSSGAPPPSGSGE-NH2 [Example 666]
pEC50: 9.47

Substance: H-Y[Aib]QGT[αMePhe(2-F)]TSD[4Pal]SI[αMeL]LD[Orn]K([AEEA-γGlu-C18 diacid])AQ[αMe4Pal][Orn]FI[dE][αMeY]LIEGGPSSGEPPPESE-NH2 [Example 677]
pEC50: 9.60

Substance: H-Y[Aib]QGT[αMePhe(2-F)]TSD[4Pal]SI[αMeL]LD[Orn]K([AEEA-γGlu-C18 diacid])AQ[αMe4Pal][Orn]FI[dE][αMeY]LIEGGPSSGDPPPEGTGE-NH2 [Example 732]
pEC50: 9.57

Substance: H-Y[Aib]QGT[αMePhe(2-F)]TSD[4Pal]SILLDKK([γGlu-γGlu-C18 diacid])AQ[Aib]AFIEYLQEGGPSSGAPPPSGTE-NH2 [Example 553]
pEC50: 9.40

Substance: H-Y[Aib]QGT[αMePhe(2-F)]TSD[4Pal][αMeS]I[αMeL]LD[Orn]K([γGlu-γGlu-C18 diacid])AQ[Aib][Orn]FI[dE]YLIEGGPSSGEPPPSGTEEE-NH2 [Example 540]
pEC50: 9.16

Substance: H-Y[Aib]QGT[αMePhe(2-F)]TSD[4Pal][αMeS]I[αMeL]LD[Orn]K([γGlu-γGlu-C18 diacid])AQ[αMe4Pal]EFI[dE][αMeY]LIEGGPSSGAPPPSGSE-NH2 [Example 717]
pEC50: 9.55

Just for reference, patent US20240270821A1 is where these values come from.
